These data points were gathered from patent US4874779A.

- Test system: human lung tumor cell line H2981
- test-description: Cytotoxicity to H2981 cells by inhibition of 3H-Thy incorporation
- Format: cell-based
- assay-setup: Homo sapiens; H2981 cells, 1 hour drug exposure in pH 7.2 PBS at 37° C., 17 hours further incubation, 6 hour 3H-Thy pulse; read-out: IC50 (cytotoxicity, inhibition of 3H-Thy incorporation)
pIC50: −log10 of the molar value.
readout-name: pIC50

Just so you know, measured pIC50 for `CO[C@@]12[C@H](COC(N)=O)C3=C(C(=O)C(C)=C(N)C3=O)N1C[C@@H]1N[C@@H]12` came out at ~6.00

* * *

- test-description: Relative toxicity in Balb C nu/nu mice
- Format: in vivo
- assay-setup: mouse, in vivo, ip, two equal doses spaced 4 days apart
Where a name gives a salt, the structure may show the parent alone.
readout-name: LD50 (mg/kg)
Just the number in mg/kg, nothing appended.

COC12C(COC(N)=O)C3=C(C(=O)C(C)=C(NCCOP(=O)(O)O)C3=O)N1CC1NC12 (centres unmarked) [Example 1, disodium salt]    90

Next item in the queue.
LD50 in this record for COC12C(COC(N)=O)C3=C(C(=O)C(C)=C(NCCO)C3=O)N1CC1NC12 (centres unmarked) [IIa] : 45
